Recorded values, source ChEMBL document CHEMBL3860099.

# Tested on: K562R
# assay.info: Inhibition of P-gp in doxorubicin-resistant human K562R cells assessed as rhodamine influx by measuring mean fluorescence intensity at 10 uM incubated for 20 mins by flow cytometry
# Format: cell-based
measured.property: Flu intensity
Answer using only a numeral; do not append any unit.

IN: # Flu intensity lookup, item CCC1=C[C@H]2CN(/C=C(/C(=O)OC)Cc3c([nH]c4ccc(Br)cc34)[C@@](C(=O)OC)(c3cc4c(cc3OC)N(C)[C@H]3[C@@](O)(C(=O)OC)[C@H](OC(C)=O)[C@]5(CC)C=CCN6CC[C@]43[C@@H]65)C2)C1
OUT: 2.1

IN: # Flu intensity lookup, item CCC1=C[C@H]2CN(C1)/C(C(=O)NC(C)C)=C(/C(=O)OC)Cc1c([nH]c3ccccc13)[C@@](C(=O)OC)(c1cc3c(cc1OC)N(C)[C@H]1[C@@](O)(C(=O)OC)[C@H](OC(C)=O)[C@]4(CC)C=CCN5CC[C@]31[C@@H]54)C2
OUT: 2.9

IN: What value of Flu intensity has been recorded for this entry: CCOC(=O)/C1=C/N2CC(CC)=C[C@@H](C2)C[C@](C(=O)OC)(c2cc3c(cc2OC)N(C)[C@H]2[C@@](O)(C(=O)OC)[C@H](OC(C)=O)[C@]4(CC)C=CCN5CC[C@]32[C@@H]54)c2[nH]c3ccccc3c2C1
OUT: 7.2

IN: What Flu intensity value was documented for this compound, CCC1=C[C@H]2CN(C1)C[C@H](C(=O)OCc1ccccc1)Cc1c([nH]c3ccccc13)[C@@](C(=O)OC)(c1cc3c(cc1OC)N(C)[C@H]1[C@@](O)(C(=O)OC)[C@H](OC(C)=O)[C@]4(CC)C=CCN5CC[C@]31[C@@H]54)C2 ?
OUT: 2.2

IN: Entry under review: C#Cc1ccc2[nH]c3c(c2c1)C/C(C(=O)OC)=C(/C(=O)NC(C)C)N1CC(CC)=C[C@@H](C1)C[C@]3(C(=O)OC)c1cc2c(cc1OC)N(C)[C@H]1[C@@](O)(C(=O)OC)[C@H](OC(C)=O)[C@]3(CC)C=CCN4CC[C@]21[C@@H]43 . Reported Flu intensity?
OUT: 1.8

IN: Item under review: C#Cc1ccc2[nH]c3c(c2c1)C/C(C(=O)OC)=C\N1CC(CC)=C[C@@H](C1)C[C@]3(C(=O)OC)c1cc2c(cc1OC)N(C)[C@H]1[C@@](O)(C(=O)OC)[C@H](OC(C)=O)[C@]3(CC)C=CCN4CC[C@]21[C@@H]43 . Reported Flu intensity?
OUT: 1.6

IN: // lookup Flu intensity for CC[C@]1(O)C[C@@H]2CN(CCc3c([nH]c4ccccc34)[C@@](C(=O)OC)(c3cc4c(cc3OC)N(C)[C@H]3[C@@](O)(C(=O)OC)[C@H](OC(C)=O)[C@]5(CC)C=CCN6CC[C@]43[C@@H]65)C2)C1 [VINBLASTINE]
OUT: 1.2

IN: Which Flu intensity value is on record for CCOC(=O)[C@@H]1Cc2c([nH]c3ccccc23)[C@@](C(=O)OC)(c2cc3c(cc2OC)N(C)[C@H]2[C@@](O)(C(=O)OC)[C@H](OC(C)=O)[C@]4(CC)C=CCN5CC[C@]32[C@@H]54)C[C@H]2C=C(CC)CN(C2)C1 ?
OUT: 5.3

IN: Dear colleague, I am looking for the recorded Flu intensity of the following compound: CCC1=C[C@@H]2CN(C1)Cc1c([nH]c3ccccc13)[C@@](C(=O)OC)(c1cc3c(cc1OC)N(C)[C@H]1[C@@](O)(C(=O)OC)[C@H](OC(C)=O)[C@]4(CC)C=CCN5CC[C@]31[C@@H]54)C2 [VINORELBINE]
OUT: 1.6
